Molecular target: 5-hydroxytryptamine receptor 1E (Homo sapiens)
Sequence (P28566 whole entry): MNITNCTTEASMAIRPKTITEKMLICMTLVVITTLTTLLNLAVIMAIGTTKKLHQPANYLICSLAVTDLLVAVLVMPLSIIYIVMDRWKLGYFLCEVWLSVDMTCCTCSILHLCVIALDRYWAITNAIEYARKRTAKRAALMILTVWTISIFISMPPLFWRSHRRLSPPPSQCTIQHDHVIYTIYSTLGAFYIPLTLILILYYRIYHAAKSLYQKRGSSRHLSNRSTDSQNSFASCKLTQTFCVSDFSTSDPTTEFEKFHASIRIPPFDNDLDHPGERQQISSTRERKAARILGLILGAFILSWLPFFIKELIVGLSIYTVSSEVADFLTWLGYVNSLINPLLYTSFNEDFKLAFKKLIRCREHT
Observable: pKi
# pKi = -log10(concentration in molar units)

# pKi measured on 5-hydroxytryptamine receptor 1E (Homo sapiens) for item `COc1ccc2c(c1)c(CCN(C)C)cn2S(=O)(=O)c1ccccc1` = 5.37

---

Assay: Compound was evaluated for its binding affinity for human 5-hydroxytryptamine 3 receptor
Observable: Ki (nM)
Response body: numeric value in nM, unit text excluded.

Consider `COc1ccc2c(c1)c(CCN(C)C)cn2S(=O)(=O)c1ccccc1` . Its measured Ki is 2390

---

Biological target: UniProt:P50406
Sequence (P50406 whole entry): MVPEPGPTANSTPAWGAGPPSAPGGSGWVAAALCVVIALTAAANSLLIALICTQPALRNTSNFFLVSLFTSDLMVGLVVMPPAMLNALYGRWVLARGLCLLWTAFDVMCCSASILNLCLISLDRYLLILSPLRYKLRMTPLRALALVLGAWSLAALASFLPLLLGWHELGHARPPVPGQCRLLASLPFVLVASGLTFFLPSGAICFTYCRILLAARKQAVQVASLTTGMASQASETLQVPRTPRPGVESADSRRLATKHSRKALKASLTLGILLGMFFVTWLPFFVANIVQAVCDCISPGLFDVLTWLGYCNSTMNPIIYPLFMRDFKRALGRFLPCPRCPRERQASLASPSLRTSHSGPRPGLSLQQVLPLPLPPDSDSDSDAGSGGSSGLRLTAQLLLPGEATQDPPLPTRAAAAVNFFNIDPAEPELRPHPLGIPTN
Experiment: Binding affinity against human 5-hydroxytryptamine 6 receptor stably transfected to HEK 293 human embryonic kidney cells using [3H]-lysergic acid diethylamide as radioligand
Assay type: cell-based, HEK293
Consider the cut-off 0.009 µM. If the recorded Ki is strictly smaller, the label is satisfied; if not, the label is not satisfied.

COc1cccc2c(CCN(C)C)cn(S(=O)(=O)c3ccc(Cl)cc3)c12    not satisfied
COc1ccc(OC)c(S(=O)(=O)n2cc(CCN(C)C)c3ccc(OC)cc32)c1    not satisfied
COc1ccc(S(=O)(=O)n2cc(CCN(C)C)c3cccc(OC)c32)cc1    not satisfied
COc1cccc2c(CCN(C)C)cn(S(=O)(=O)c3ccc4ccccc4c3)c12    satisfied

Here's the next entry for you.
Consider `COc1ccc(OC)c(S(=O)(=O)n2cc(CCN(C)C)c3cccc(OC)c32)c1` . Does its Ki lie strictly below 0.009 µM?
not satisfied
